- EXPERIMENTAL_PROTOCOL: AUC (0 to infinity) in ICR mouse at 10 mg/kg, po measured up to 24 hrs by LC-MS/MS analysis
- Assay type: ADME, organism-based
- STUDY_CONDITIONS: in vivo
VALUE_TYPE: AUC(0-inf)

N#Cc1ncc(Nc2ncc3c(ccc(=O)n3CC(F)F)n2)cc1N[C@@H]1CCNC1; 47.3 ng·h/mL

* * *

- EXPERIMENTAL_PROTOCOL: Tmax in ICR mouse at 2 mg/kg, iv measured up to 24 hrs by LC-MS/MS analysis
- Type: ADME, organism-based
- STUDY_CONDITIONS: in vivo
VALUE_TYPE: Tmax (min)

N#Cc1ncc(Nc2ncc3c(ccc(=O)n3CC(F)F)n2)cc1N[C@@H]1CCNC1; 4.8

* * *

- EXPERIMENTAL_PROTOCOL: Initial plasma concentration in ICR mouse at 2 mg/kg, iv measured up to 24 hrs by LC-MS/MS analysis
- Format: ADME, organism-based
VALUE_TYPE: C0 at 24 h (ng/mL)

N#Cc1ncc(Nc2ncc3c(ccc(=O)n3CC(F)F)n2)cc1N[C@@H]1CCNC1; 860

* * *

- EXPERIMENTAL_PROTOCOL: Half life in ICR mouse at 2 mg/kg, iv measured up to 24 hrs by LC-MS/MS analysis
- Format: ADME, organism-based
- STUDY_CONDITIONS: in vivo
VALUE_TYPE: half-life (h)

N#Cc1ncc(Nc2ncc3c(ccc(=O)n3CC(F)F)n2)cc1N[C@@H]1CCNC1; 5.7

* * *

- EXPERIMENTAL_PROTOCOL: MRT (0 to infinity) in ICR mouse at 2 mg/kg, iv measured up to 24 hrs by LC-MS/MS analysis
- Format: ADME, organism-based
- STUDY_CONDITIONS: in vivo
VALUE_TYPE: MRT inf (h)

N#Cc1ncc(Nc2ncc3c(ccc(=O)n3CC(F)F)n2)cc1N[C@@H]1CCNC1; 3.91

* * *

- EXPERIMENTAL_PROTOCOL: Metabolic stability in human liver microsome assessed as parent compound remaining preincubated with compound for 10 mins followed by NADPH addition and measured at 60 min by LC-MS/MS analysis
- Assay type: ADME
- STUDY_CONDITIONS: liver microsomes, time 70 min, read-out: Stability
VALUE_TYPE: remaining at 1 h (%)

N#Cc1ncc(Nc2ncc3c(ccc(=O)n3CC(F)F)n2)cc1N[C@@H]1CCNC1; 1.96

* * *

- EXPERIMENTAL_PROTOCOL: Metabolic stability in human liver microsome assessed as parent compound remaining preincubated with compound for 10 mins followed by NADPH addition and measured immediately by LC-MS/MS analysis
- Format: ADME
- STUDY_CONDITIONS: liver microsomes, read-out: Stability
VALUE_TYPE: remaining at 0 min

N#Cc1ncc(Nc2ncc3c(ccc(=O)n3CC(F)F)n2)cc1N[C@@H]1CCNC1; 100%

* * *

- EXPERIMENTAL_PROTOCOL: Metabolic stability in human liver microsome assessed as intrinsic clearance preincubated with compound for 10 mins followed by NADPH addition and measured up to 60 min by LC-MS/MS analysis
- Type: ADME
- STUDY_CONDITIONS: liver microsomes, time < 70 min, read-out: CLH
VALUE_TYPE: CLint scaled

O=C(O)Cc1ccccc1Nc1c(Cl)cccc1Cl; 242 mL/min/kg
N#Cc1ncc(Nc2ncc3c(ccc(=O)n3CC(F)F)n2)cc1N[C@@H]1CCNC1; 116 mL/min/kg
